assay.comment: Brain to plasma ratio (B:P) in mice
Format: in vivo
measurement.setup: mouse, brain and plasma, 10 mg/kg po, 2 hours post-dose
attribute.measured: Kp at 2 h
No unit in the answer, please; the number alone is enough.

q: Consider the molecule `CC(C)(C)C(=O)NNC(=O)/C=C\n1cnc(-c2cc(C(F)(F)F)cc(C(F)(F)F)c2)n1` and give its measured Kp at 2 h.
a: 2.25

q: // Kp at 2 h lookup, key: `CC1(C)COCCN1CC(=O)NNC(=O)/C=C\n1cnc(-c2cc(C(F)(F)F)cc(C(F)(F)F)c2)n1`
a: 0

q: Requested field: Kp at 2 h. Item: `Cc1[nH]ncc1C(=O)NNC(=O)/C=C\n1cnc(-c2cc(C(F)(F)F)cc(C(F)(F)F)c2)n1`
a: 0.03

q: # input molecule: `O=C(/C=C\n1cnc(-c2cc(C(F)(F)F)cc(C(F)(F)F)c2)n1)NNC(=O)Cc1cnccn1` ; wanted: its Kp at 2 h
a: 0.095

q: Looking for the measured Kp at 2 h of `O=C(/C=C\n1cnc(-c2cc(C(F)(F)F)cc(C(F)(F)F)c2)n1)NNC(=O)CN1CCOCC1=O` , can you help?
a: 0

q: Which measured Kp at 2 h value corresponds to CC1COCC(C)N1CC(=O)NNC(=O)/C=C\n1cnc(-c2cc(C(F)(F)F)cc(C(F)(F)F)c2)n1 (stereo not drawn) ?
a: 1.5
